system: OVCAR-8; test: NCI tumour cell line growth inhibition, 48 h
The source made the active and inactive calls. No stated cut-off is given here; in the data, active = GI50 up to about 1.1 µM and inactive = higher.
// values below are reported GI50

MOLECULE: Cc1cc2nn(C3CCCCO3)nc2cc1C (stereo not drawn)
MEASURED_ON: OVCAR-8
GI50: > 100 µM (inactive)
--
MOLECULE: COc1ccc2c(c1)/C(=C\c1c(Cl)nc3n1CCS3)C(=O)N2
MEASURED_ON: OVCAR-8
GI50: 19.7 µM (inactive)
--
MOLECULE: COc1ccc(OC)c2sc(N3C(=O)/C(=C/Cc4ccco4)N=C3c3ccccc3)nc12
MEASURED_ON: OVCAR-8
GI50: 33.5 µM (inactive)

###

test system: SN12C; assay: NCI tumour cell line growth inhibition, 48 h
Active and inactive are the calls of the source. No stated cut-off is given here; in the data, active = GI50 up to about 1.1 µM and inactive = higher.
Outcome codes: active, inactive

COMPOUND: CCCCCCCCCCCCC/C=C/[C@@H](O)[C@H](COC1OC(CO)C(OC2OC(CO)C(O)C(OC3(C(=O)O)CC(O)C(NC(C)=O)C(C(O)C(O)CO)O3)C2O)C(O)C1O)N=[N+]=[N-] (stereo partly drawn)
MEASURED_ON: SN12C
CATEGORY_LABEL: inactive
--
COMPOUND: Clc1ccc2ns[s+]c2c1
MEASURED_ON: SN12C
CATEGORY_LABEL: inactive
--
COMPOUND: CC1OC(OC2C[C@](O)(C(=O)CF)Cc3c(O)c4c(c(O)c32)C(=O)c2ccccc2C4=O)CC(N)C1O (stereo partly drawn)
MEASURED_ON: SN12C
CATEGORY_LABEL: active

###

test system: HT-29; test: NCI tumour cell line growth inhibition, 48 h
Active and inactive are the calls of the source. No stated cut-off is given here; in the data, active = GI50 up to about 1.1 µM and inactive = higher.
Outcome codes: Y (active), N (inactive)

COMPOUND: C/C(Cc1ccc2c(c1)OCO2)=N\N=c1\sc2ccccc2n1C
CATEGORY_LABEL: N
//
COMPOUND: Cn1c2ccccc2c2cc(-c3ccccc3)c3c(c21)C(=O)c1ccccc1C3=O
CATEGORY_LABEL: N
//
COMPOUND: O=C(CC(C(=O)c1ccsc1)c1cccs1)c1cccs1 (centres undefined)
CATEGORY_LABEL: N
//
COMPOUND: N=C(N)N/N=C/c1c(-c2ccc(Cl)cc2)nc2n1CCS2
CATEGORY_LABEL: N
//
COMPOUND: COc1ccc(/C=N/NC(=O)c2sc(=S)n(-c3ccccc3)c2N)cc1
CATEGORY_LABEL: N
//
COMPOUND: CC(=O)/C(=C/c1ccccc1F)C(=O)c1ccccc1
CATEGORY_LABEL: N
//
COMPOUND: COC1OC(CO)C(O)C(OC(=O)c2cc(O)c(O)c(O)c2)C1OC(=O)c1cc(O)c(O)c(O)c1 (centres undefined)
CATEGORY_LABEL: N
//
COMPOUND: COc1cc2c(cc1OCCCCOc1cc(-c3ccc(F)cc3)nc(C)n1)N=C[C@@H]1CCCN1C2=O
CATEGORY_LABEL: Y
//
COMPOUND: COc1ccc2c(=O)c(-c3cc4c(cc3OC)OCO4)coc2c1
CATEGORY_LABEL: N
//
COMPOUND: C[C@@]12C(=O)OC(=O)[C@]1(C)[C@H]1CC[C@@H]2O1
CATEGORY_LABEL: N
//
COMPOUND: CNc1ccc([N+](=O)[O-])cc1C(=O)N1CCC[C@H]1CO
CATEGORY_LABEL: N
//
COMPOUND: C[C@@H](NC(=O)[C@@H]1C[C@]1(C)CO)c1cccc2ccccc12
CATEGORY_LABEL: N
//
COMPOUND: CCc1nnc(CC)n1N1C(=O)CCC1=O
CATEGORY_LABEL: N
//
COMPOUND: COc1ccc2c(C)cc(N/N=C/c3ccc(OC)c4ccccc34)nc2c1
CATEGORY_LABEL: N
//
COMPOUND: O=C(N/N=C\c1ccc([N+](=O)[O-])cc1)Nc1ccccc1
CATEGORY_LABEL: N
//
COMPOUND: COc1ccc(/C=C2\Sc3nnc(C)n3N=C2c2cc(F)c(Cl)cc2Cl)cc1OC
CATEGORY_LABEL: N
//
COMPOUND: COC(=O)/C=C(C)/C=C/c1c(C)c(C(C)=O)c(C)n1C
CATEGORY_LABEL: N
//
COMPOUND: COC(=O)C12C3C4C1C1C2C3C41C(=O)N(C(C)C)C(C)C (centres undefined)
CATEGORY_LABEL: N
//
COMPOUND: c1ccc2c(c1)nc1n2CNCC1
CATEGORY_LABEL: N
//
COMPOUND: CN/N=C(\C(=O)Nc1ccc([N+](=O)[O-])cc1[N+](=O)[O-])C1NC(=O)NC1=O (centres undefined)
CATEGORY_LABEL: N
//
COMPOUND: C=C1CC[C@@H]2[C@](C)(COC(=O)CCC(=O)O)CCC[C@@]2(C)[C@@H]1CCC1=CC(=O)OC1
CATEGORY_LABEL: N
//
COMPOUND: C/C(=N\Nc1ccc2ccccc2n1)c1ccccc1O
CATEGORY_LABEL: N
//
COMPOUND: COC1CC(O[C@H]2CC[C@@]3(C)[C@@H](CC[C@]4(O)[C@@H]3CC[C@]3(C)[C@@H](C(C)=O)[C@H](OC(=O)CC(C)C)[C@@H](OC(=O)c5ccccc5)[C@@]34O)C2)OC(C)C1OC1CC(OC)C(OC2OC(C)C(O)C(OC)C2O)C(C)O1 (some centres undefined)
CATEGORY_LABEL: N
//
COMPOUND: CCCCN(CCCC)C(=O)C(=O)C(C(=O)c1ccc(OC)cc1)c1ccc(OC)cc1 (centres undefined)
CATEGORY_LABEL: N

The origin of these recorded values is ChEMBL document CHEMBL1201862.
